- target or test system: Jun-Jun bZIP K268A (human, UniProt P05412 252-315, K268A)
- Sequence (P05412 252-315 K268A): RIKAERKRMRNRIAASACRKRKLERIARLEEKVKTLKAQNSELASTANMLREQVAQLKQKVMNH
- protocol notes: ITC
outcome measure: pKd
Scale for pKd: -log10 of concentration given in mol/L; no unit attached.

Data request: // pKd lookup, key: TRE duplex 15-mer (dsDNA) DNA 1: CGCGTGACTCACCCC DNA 2: GGGGTGAGTCACGCG
Data returned: 6.40
